Biological target: GluA1/2 (Rattus norvegicus, UniProt P19490+P19491)
Construct: expressed in transfected cells; host or cells: HEK293T
Sequence (P19490 19-907 isoform P19490-2 limits assumed): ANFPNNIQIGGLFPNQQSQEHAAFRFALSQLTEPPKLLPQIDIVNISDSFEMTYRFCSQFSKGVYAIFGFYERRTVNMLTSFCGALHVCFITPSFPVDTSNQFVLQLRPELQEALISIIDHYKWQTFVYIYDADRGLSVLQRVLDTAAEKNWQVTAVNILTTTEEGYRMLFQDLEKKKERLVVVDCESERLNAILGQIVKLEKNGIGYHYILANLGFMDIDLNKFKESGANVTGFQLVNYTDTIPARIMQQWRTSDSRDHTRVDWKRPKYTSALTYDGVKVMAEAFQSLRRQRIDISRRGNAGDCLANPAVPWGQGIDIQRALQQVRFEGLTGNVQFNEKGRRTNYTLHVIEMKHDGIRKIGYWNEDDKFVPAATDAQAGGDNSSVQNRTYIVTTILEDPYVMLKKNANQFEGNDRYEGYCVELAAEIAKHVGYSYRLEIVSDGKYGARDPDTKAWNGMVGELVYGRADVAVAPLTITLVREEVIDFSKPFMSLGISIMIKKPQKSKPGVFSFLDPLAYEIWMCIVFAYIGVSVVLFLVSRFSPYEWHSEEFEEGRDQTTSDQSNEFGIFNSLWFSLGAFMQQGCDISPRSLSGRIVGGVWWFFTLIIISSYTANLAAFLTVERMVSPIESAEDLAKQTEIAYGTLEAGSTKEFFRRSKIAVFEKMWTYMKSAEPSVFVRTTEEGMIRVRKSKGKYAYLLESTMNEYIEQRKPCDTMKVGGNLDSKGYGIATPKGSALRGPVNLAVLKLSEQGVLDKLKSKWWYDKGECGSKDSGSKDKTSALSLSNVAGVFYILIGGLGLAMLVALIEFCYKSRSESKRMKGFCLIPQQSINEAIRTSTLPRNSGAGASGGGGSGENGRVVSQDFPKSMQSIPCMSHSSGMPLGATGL
Sequence (P19491 22-883 isoform P19491-2 limits assumed): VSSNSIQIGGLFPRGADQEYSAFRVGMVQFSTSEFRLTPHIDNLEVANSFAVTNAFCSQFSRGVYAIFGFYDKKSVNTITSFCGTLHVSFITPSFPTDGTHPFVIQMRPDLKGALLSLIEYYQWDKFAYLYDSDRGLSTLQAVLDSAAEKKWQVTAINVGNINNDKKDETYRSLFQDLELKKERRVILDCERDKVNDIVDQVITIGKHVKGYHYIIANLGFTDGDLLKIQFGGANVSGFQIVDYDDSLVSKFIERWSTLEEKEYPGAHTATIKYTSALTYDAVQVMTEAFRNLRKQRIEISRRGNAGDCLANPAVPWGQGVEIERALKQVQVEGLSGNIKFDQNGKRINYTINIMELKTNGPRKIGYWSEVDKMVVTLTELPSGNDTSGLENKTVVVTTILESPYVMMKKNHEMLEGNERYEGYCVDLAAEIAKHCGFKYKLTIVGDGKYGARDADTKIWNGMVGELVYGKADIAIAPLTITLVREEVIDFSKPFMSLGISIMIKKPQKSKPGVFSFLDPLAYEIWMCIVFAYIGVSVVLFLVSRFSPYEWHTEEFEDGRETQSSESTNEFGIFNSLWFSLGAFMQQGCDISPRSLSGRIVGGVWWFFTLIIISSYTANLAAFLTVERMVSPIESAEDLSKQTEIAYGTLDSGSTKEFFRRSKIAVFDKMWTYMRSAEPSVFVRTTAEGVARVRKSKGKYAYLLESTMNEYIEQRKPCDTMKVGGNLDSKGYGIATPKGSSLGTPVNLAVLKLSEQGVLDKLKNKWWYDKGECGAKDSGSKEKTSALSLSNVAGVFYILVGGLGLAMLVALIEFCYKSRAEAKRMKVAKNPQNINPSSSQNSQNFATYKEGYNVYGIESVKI
Assay: Whole-cell patch-clamp recording of heteromeric GluA1/2 AMPAR expressed in HEK293T cells
Type: cell-based
Details: washout/recovery, glutamate alone after compound, n=8
Description: For the DNA preparation, the QIAGEN Plasmid Mini Kit was used to prepare up to 20 µg of high-copy plasmid DNA [30]. […] After that, a patch was placed in front of a rapid perfusion system comprised of a theta tube flow pipe mounted on a piezoelectric translator that was used to wash the cell continuously from one barrel while the other supplied the compound of interest to the cell. […] The sample size was determined to be eight viable cells to calculate the mean inhibition of the derivative of interest. […]
parameter: Amplitude, applying glutamate alone after compound (pA)

Nc1ccc(C2=NNC(=O)Cc3cc4c(cc32)OCO4)c(F)c1 | 575
COc1cc(N)ccc1C1=NNC(=O)Cc2cc3c(cc21)OCO3 | 523
O=C1Cc2cc3c(cc2C(c2ccc([N+](=O)[O-])cc2F)=NN1)OCO3 | 569
COc1cc([N+](=O)[O-])ccc1C1=NNC(=O)Cc2cc3c(cc21)OCO3 | 583

---

biological target: GluA1/2 (Rattus norvegicus, UniProt P19490+P19491); construct: expressed in transfected cells; host or cells: HEK293T; test: Whole-cell patch-clamp recording of heteromeric GluA1/2 AMPAR expressed in HEK293T cells; type: cell-based; settings: 1 ms 10 mM glutamate + 16 µM compound, n=8
parameter: t deact (weighted deactivation time constant) (ms)

O=C1Cc2cc3c(cc2C(c2ccc([N+](=O)[O-])cc2F)=NN1)OCO3 | 2.8

[a] Nc1ccc(C2=NNC(=O)Cc3cc4c(cc32)OCO4)c(F)c1
[b] COc1cc([N+](=O)[O-])ccc1C1=NNC(=O)Cc2cc3c(cc21)OCO3
[c] COc1cc(N)ccc1C1=NNC(=O)Cc2cc3c(cc21)OCO3
Order the items by recorded t deact (weighted deactivation time constant); the first position goes to the largest value. Write out the labels following the order that was asked for.
a, c, b
(a: 6.7 ms, c: 3.9 ms, b: 2.7 ms)

---

tested on: AMPA receptor subunits; test: Whole-cell patch-clamp recording, statements over all tested AMPAR subunits (GluA1, GluA1/2, GluA2, GluA2/3) in HEK293T cells; type: cell-based; settings: 16 µM compound
parameter: Reduction in AMPAR subunit currents (fold)
The response must be a number in fold with no trailing unit.

O=C1Cc2cc3c(cc2C(c2ccc([N+](=O)[O-])cc2F)=NN1)OCO3 [2,3-BDZ-3] | 4

I have this compound here, COc1cc([N+](=O)[O-])ccc1C1=NNC(=O)Cc2cc3c(cc21)OCO3 [2,3-BDZ-4] , and I need its recorded Reduction in AMPAR subunit currents.
3
